# measurement-description: Chromogenic reaction of degrading herbicides in bacteria: 2,4-D
# Type: cell-based, Escherichia coli
# measurement-context: recombinant E. coli expressing the gene, 2,4-D added to the medium; red = phenols
measured-quantity: Chromogenic reaction of degrading herbicides in bacteria: 2,4-D

Form field Chromogenic reaction of degrading herbicides in bacteria: 2,4-D, entry QYD61: AAD-like candidate enzyme; 100.00% identical to US20190024109-0292 (protein, Synthetic polypeptide, QYD61, D61) MSVVANPLHPLFAAGVEDIDLREALGSTEVREIERLMDEKSVLVFRGQPLSQDQQIAFARNFGPLEGGFIKVNQRPSRFKYAELADISNVSLDGKVAQRDAREVVGNFANQLWHSDSSFQQPAARYSMLSAVVVPPSGGDTEFCDMRAAYDALPRDLQSELEGLRAEHYALNSRFLLGDTDYSEAQRNAMPPVNWPLVRTHAGSGRKFLFIGAHASHVEGLPVAEGRMLLAELLEHATQREFVYRHRWNVGDLVMWDNRCVLHRGRRYDISARRELRRATTLDDAVV : Yes

Form field Chromogenic reaction of degrading herbicides in bacteria: 2,4-D, entry QYD35: AAD-like enzyme, SEQ ID NO. 69 (protein, Synthetic polypeptide, QYD35, D35) MSARPFTVEPLPATFGARITGLDLAALDDATFAALYDAWLEYALLIFPGAGLSTAEQVTFARRFGDMEFDIAPLSNVRKDGSLRADDGTDDVVKVLRGNMGWHADSTYMPVQAKGAVFSAHVVPEEGGETGWADMRAAYDALDDDLRRRIEGLSAHHSLVHSQARLGHAHGTDSEYSGYGFHDEAPLRPLVKVHPETGRRSLLIGRHAYGIPGLEETASERLLDELVDFACRPPRVYHHRWQVGDVVLWDNRCLLHRACPWDMSRPRVMYHSRIAGDPVTEAGLAGQSEQPSASGS : Yes

These data points were gathered from patent US20240043859A1.
